Reference source: the supplement of paper PMC6555819

system: PPARa:RXRa (NR concentration 270 nM, RXRa partner concentration 90 nM); test: PBM binding z-score (relative to random genomic background probes); higher = stronger binding; sequences stand for … in GC…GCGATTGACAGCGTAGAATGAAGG
Decide by PBM binding z-score: equal to or exceeding 3 means yes (1), less means no (0).

Past entries and their recorded results:
Enquiry: hey, is PBM binding z-score for this one >= 3? TTACCAAGGTGAAGGGTCGTTGATGCACGCCTTG
Return: yes (1)

Enquiry: Same question for TTACCAAGGGGAGCTGAGGTCGTTGATCCAACTC please.
Return: no (0)

Enquiry: Same question for ACTAGCAGGCCAAGGGTCAGTCAAGATTAGTCCG please.
Return: yes (1)

---
Enquiry: hey, is PBM binding z-score for this one >= 3? ACTATTAGTTGACTTAGGCCAACCGATACGACGC
Return: no (0)

Enquiry: Same question for TCATATGGGTAATACAGGTGAAAGTCGGCATCTA please.
Return: no (0)

Enquiry: Same question for CCTTACGTGTCACTCCAGGTTATAGCATCGGAGT please.
Return: no (0)

Enquiry: Same question for GATACAGGGTCAAGGCCAGCGTACGCGTATTGAT please.
Return: yes (1)

Enquiry: Same question for CCTACTGGGCCACCAGGTCATTGATATCAACGTT please.
Return: yes (1)

Enquiry: Same question for ATCTCTAGGTACAGTTCAGTGAAAGATCGATAGA please.
Return: no (0)

Enquiry: Same question for TCATATAGGTAAAGGTGAAAGGCGAACGATATGA please.
Return: yes (1)

Enquiry: Same question for ATCTCTAGTTAAAGATAGTTCAGTGAATGCAAAT please.
Return: no (0)
